tested on: Rattus norvegicus; assay: Analgesic activity against Wistar albino rat at 200 mg/kg, ip measured immediately after compound administration by tail flick method (reference value: 1.9 +/- 0.12 %); format: functional; conditions: route intraperitoneal, read-out: INH
Listed here: items and their measured tail-flick reaction time at 200 mg/kg.

| test-smiles | tail-flick reaction time at 200 mg/kg |
| --- | --- |
| CSc1ccc(-c2n[nH]cc2/C=N/NC(=O)CSc2nc3ccccc3o2)cc1 | 3.05% |
| O=C(CSc1nc2ccccc2o1)N/N=C/c1c[nH]nc1-c1ccc(-c2ccccc2)cc1 | 3.13% |
| Sc1nnc(COc2cccc3ccccc23)n1/N=C/c1c[nH]nc1-c1cc(Cl)sc1Cl | 2.67% |
| Clc1cc(Cl)c2oc(N/N=C/c3c[nH]nc3-c3cc(Cl)sc3Cl)nc2c1 | 2.98% |
| Sc1nnc(COc2cccc3ccccc23)n1/N=C/c1c[nH]nc1-c1ccc(Cl)cc1Cl | 2.85% |
| O=C(CSc1nc2ccccc2o1)N/N=C/c1c[nH]nc1-c1ccc(Cl)cc1Cl | 2.27% |
| CSc1ccc(-c2n[nH]cc2/C=N/Nc2nc3cc(Cl)cc(Cl)c3o2)cc1 | 3.25% |
